Give measured IC50 for each item. Keep answers brief.
biological target: UniProt P23458; experiment: Inhibition of recombinant JAK1 (unknown origin) using fluoresceinated peptide as substrate after 60 mins by HTRF assay
Sequence (P23458 whole entry): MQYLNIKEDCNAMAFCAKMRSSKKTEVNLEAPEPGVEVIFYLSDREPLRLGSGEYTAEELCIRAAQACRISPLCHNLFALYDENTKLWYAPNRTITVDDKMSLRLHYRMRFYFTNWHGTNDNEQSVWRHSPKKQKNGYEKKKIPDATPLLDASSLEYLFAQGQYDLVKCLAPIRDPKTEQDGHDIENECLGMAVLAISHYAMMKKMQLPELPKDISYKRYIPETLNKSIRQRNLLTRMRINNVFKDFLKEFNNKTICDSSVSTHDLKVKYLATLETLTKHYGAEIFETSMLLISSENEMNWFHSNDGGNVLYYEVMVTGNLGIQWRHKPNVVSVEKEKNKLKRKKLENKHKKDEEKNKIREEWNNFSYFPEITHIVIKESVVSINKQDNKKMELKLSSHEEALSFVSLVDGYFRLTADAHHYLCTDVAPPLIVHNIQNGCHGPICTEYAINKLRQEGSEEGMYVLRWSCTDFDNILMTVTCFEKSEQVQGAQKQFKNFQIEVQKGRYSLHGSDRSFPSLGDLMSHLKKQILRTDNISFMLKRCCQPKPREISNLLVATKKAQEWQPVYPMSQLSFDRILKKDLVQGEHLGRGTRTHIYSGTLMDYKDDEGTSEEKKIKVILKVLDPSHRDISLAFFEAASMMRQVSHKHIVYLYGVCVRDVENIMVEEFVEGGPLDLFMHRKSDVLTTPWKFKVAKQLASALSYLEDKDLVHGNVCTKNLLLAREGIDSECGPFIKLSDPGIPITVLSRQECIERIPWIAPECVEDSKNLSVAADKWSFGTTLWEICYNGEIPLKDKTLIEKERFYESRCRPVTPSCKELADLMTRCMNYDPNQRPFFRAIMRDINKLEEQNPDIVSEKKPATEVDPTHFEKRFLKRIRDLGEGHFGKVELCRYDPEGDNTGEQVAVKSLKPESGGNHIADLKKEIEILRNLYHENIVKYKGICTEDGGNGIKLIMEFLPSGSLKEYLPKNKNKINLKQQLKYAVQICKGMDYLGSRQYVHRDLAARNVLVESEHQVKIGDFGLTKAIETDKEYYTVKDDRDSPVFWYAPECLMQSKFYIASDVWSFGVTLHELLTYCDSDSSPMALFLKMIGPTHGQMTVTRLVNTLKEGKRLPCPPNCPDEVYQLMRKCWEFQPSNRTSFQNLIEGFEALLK

| Smiles entry | IC50 |
| --- | --- |
| CCn1c(C(=O)N(C2CC2)C2CC2)cc2c3c(ncn3C)c(NC(=O)OCCOC)nc21 | 1700 nM |
| CCn1c(C(=O)N(C2CC2)C2CC2)cc2c3c(ncn3C)c(Nc3ncc(C)s3)nc21 | 61 nM |

Please find the next molecule below.
Form field - read-out: IC50; system: UniProt P23458; submitted item: CCn1c(C(=O)N(C2CC2)C2CC2)cc2c3c(ncn3C)c(Nc3nc(C)c(C)s3)nc21
270 nM

* * *

assay: Plasma protein binding in mouse; type: ADME; conditions: read-out: PPB
Recorded endpoint: fraction unbound
Give bare numbers.

Record request: fraction unbound value, item CCn1c(C(=O)N(C2CC2)C2CC2)cc2c3c(ncn3C)c(Nc3nc(C)c(C)s3)nc21
0.01

* * *

assay: Half life in rat microsomes; format: ADME, Microsome
Recorded endpoint: half-life (min)
One number for each entry, in min.

Record request: half-life value, item CCn1c(C(=O)N(C2CC2)C2CC2)cc2c3c(ncn3C)c(Nc3nc(C)c(C)s3)nc21
14

* * *

molecular target: Non-receptor tyrosine-protein kinase TYK2 (Homo sapiens, UniProt P29597); experiment: Inhibition of recombinant Tyk2 (unknown origin) using fluoresceinated peptide as substrate after 60 mins by HTRF assay
Sequence (P29597 whole entry): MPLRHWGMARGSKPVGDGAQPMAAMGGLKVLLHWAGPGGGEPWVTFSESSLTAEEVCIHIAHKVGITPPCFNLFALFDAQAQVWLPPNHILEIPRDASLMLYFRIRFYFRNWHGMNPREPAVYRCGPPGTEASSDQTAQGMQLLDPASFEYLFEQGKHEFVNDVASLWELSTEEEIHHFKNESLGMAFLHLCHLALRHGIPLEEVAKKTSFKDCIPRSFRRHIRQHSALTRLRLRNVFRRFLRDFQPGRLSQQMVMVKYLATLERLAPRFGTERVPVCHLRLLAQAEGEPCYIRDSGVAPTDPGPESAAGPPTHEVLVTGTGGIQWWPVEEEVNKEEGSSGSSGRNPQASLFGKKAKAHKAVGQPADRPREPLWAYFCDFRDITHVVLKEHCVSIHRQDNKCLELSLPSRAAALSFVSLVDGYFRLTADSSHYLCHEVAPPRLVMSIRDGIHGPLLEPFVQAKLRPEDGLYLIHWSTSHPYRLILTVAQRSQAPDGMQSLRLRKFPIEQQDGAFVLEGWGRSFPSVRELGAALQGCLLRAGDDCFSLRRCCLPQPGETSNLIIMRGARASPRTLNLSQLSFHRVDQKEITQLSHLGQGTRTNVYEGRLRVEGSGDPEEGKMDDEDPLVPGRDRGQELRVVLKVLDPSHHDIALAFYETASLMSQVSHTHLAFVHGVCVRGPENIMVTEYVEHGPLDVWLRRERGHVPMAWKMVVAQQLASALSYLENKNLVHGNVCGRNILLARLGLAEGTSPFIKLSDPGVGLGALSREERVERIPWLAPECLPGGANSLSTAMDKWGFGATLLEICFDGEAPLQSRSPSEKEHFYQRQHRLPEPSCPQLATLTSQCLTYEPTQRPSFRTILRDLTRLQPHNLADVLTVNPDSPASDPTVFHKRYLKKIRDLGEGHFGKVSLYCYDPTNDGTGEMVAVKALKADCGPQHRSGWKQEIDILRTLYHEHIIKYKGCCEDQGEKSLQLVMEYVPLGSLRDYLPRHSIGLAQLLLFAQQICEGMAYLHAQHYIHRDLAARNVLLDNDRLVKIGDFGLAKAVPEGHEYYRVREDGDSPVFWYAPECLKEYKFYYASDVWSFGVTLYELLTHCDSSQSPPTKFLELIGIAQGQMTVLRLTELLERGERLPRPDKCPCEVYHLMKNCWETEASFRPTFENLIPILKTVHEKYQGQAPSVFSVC
Give measured pIC50 for each item. Keep answers brief.
One number for each entry, as −log10 of the molar value.

// known answers, use as guide
| Smiles entry | Target system | pIC50 |
| --- | --- | --- |
| CCn1c(C(=O)N(C2CC2)C2CC2)cc2c3c(ncn3C)c(NCCCOC)nc21 | Non-receptor tyrosine-protein kinase TYK2 (Homo sapiens, UniProt P29597) | 6.16 |
| CCn1c(C(=O)N(C2CC2)C2CC2)cc2c3c(ncn3C)c(Nc3ncc(C)s3)nc21 | Non-receptor tyrosine-protein kinase TYK2 (Homo sapiens, UniProt P29597) | 7.34 |
| CCn1c(C(=O)N(C2CC2)C2CC2)cc2c3c(ncn3C)c(Nc3nc(C)c(C)s3)nc21 | Non-receptor tyrosine-protein kinase TYK2 (Homo sapiens, UniProt P29597) | 6.96 |

Report pIC50 for every entry below.
1. CCn1c(C(=O)N(C2CC2)C2CC2)cc2c3c(ncn3C)c(Nc3nc(C)cs3)nc21
2. CCn1c(C(=O)N(C2CC2)C2CC2)cc2c3c(ncn3C)c(NC(=O)OCCOC)nc21
3. CCn1c(C(=O)N(C2CC2)C2CC2)cc2c3c(ncn3C)c(Nc3nccs3)nc21
4. CCn1c(C(=O)N(C2CC2)C2CC2)cc2c3c(ncn3C)c(NC(=O)NCCOC)nc21
5. CCn1c(C(=O)N(C2CC2)C2CC2)cc2c3c(ncn3C)c(NC)nc21

7.35
5.77
7.55
6.54
7.15

* * *

Target: Nuclear receptor subfamily 1 group I member 2 (Homo sapiens, UniProt O75469)
Sequence (O75469 whole entry): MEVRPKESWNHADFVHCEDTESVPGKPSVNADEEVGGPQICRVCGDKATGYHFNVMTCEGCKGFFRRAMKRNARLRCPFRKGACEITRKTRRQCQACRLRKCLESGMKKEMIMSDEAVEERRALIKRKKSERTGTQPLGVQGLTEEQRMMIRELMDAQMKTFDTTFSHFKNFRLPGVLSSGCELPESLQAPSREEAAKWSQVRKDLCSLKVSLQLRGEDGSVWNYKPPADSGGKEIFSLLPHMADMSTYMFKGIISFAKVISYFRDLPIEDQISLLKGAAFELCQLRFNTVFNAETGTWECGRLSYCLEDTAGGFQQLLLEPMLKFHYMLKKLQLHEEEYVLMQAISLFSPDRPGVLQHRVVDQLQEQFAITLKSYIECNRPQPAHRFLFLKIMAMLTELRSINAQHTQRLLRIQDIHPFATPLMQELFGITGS
Test: Activation of PXR (unknown origin)
pEC50: −log10 of the molar value.
Recorded endpoint: pEC50

Record request: pEC50 value, item CCn1c(C(=O)N(C2CC2)C2CC2)cc2c3c(ncn3C)c(Nc3nc(C)c(C)s3)nc21
< 4.80
